Exercise: for every item that follows, state its recorded pEC50.
- assayed-target: human GLP-1 receptor (Homo sapiens, UniProt P43220)
- Construct: expressed in transfected cells
- Sequence (P43220 24-463): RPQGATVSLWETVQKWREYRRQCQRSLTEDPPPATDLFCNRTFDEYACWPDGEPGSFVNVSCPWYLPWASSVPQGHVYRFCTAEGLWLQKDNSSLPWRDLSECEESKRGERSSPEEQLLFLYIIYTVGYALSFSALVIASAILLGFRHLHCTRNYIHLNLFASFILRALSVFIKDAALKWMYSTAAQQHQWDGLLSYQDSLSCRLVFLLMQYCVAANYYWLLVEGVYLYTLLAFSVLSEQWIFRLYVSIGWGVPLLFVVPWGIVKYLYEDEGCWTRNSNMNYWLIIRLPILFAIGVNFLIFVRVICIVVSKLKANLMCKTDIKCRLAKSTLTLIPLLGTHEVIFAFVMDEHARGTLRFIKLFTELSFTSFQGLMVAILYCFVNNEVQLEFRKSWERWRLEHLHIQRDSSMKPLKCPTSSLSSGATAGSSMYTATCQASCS
- experiment-notes: GLP-1R cAMP Assay
- Format: cell-based
- settings: cAMP accumulation in CHO cells stably overexpressing the human GLP-1 receptor; 30 min treatment; HitHunter cAMP kit; read-out: EC50
pEC50: −log10 of the molar value.

The cases that follow already have their pEC50 on record.
>>> result("O=C(O)c1ccc2nc(CN3CCC(Oc4cccc(COc5ccc(Cl)cc5Cl)n4)CC3)n(C[C@@H]3CCO3)c2c1 [Example 198]")
"> 7.30"
>>> result("O=C(O)c1ccc2nc(CN3CCC(Oc4ccnc(COc5ccc(Cl)cc5CO)c4)CC3)n(CC3CCO3)c2c1 (stereo not shown) [Compound 292]")
"> 7.30"
>>> result("CCn1cncc1Cn1c(CN2CCN(C(=O)c3cccc(COc4ccc(C#N)cc4F)c3)CC2)nc2ccc(C(=O)O)cc21 [Compound 69]")
"< 6.30"
>>> result("O=C(O)c1ccc2nc(CN3CCC(Oc4cccc(COc5ccc(Cl)cc5Cl)c4)CC3)n(C[C@@H]3CCO3)c2c1 [Compound 174]")
"> 7.30"

Give pEC50 for each listed item.
1. Cc1ccc(N(C)c2cccc(S(=O)(=O)N3CCN(Cc4nc5ccc(C(=O)O)cc5n4C[C@@H]4CCO4)CC3)c2)c(Cl)c1 [Compound 86]
2. O=C(O)c1ccc2nc(CN3CCC(Oc4cccc(COc5ccc(Cl)cc5Cl)c4)CC3)n(Cc3ncco3)c2c1 [Compound 217]
3. Cc1cc(C(=O)O)cc2c1nc(CN1CCC(Oc3ccnc(COc4ccc(C#N)cc4F)c3)CC1)n2C[C@@H]1CCO1 [Compound 499]

["< 6.30", "> 7.30", "> 7.30"]

###

- assayed-target: human GLP-1 receptor (Homo sapiens)
- Construct: expressed in transfected cells
- experiment-notes: GLP-1R cAMP Assay
- Type: cell-based
- settings: cAMP accumulation in CHO cells stably overexpressing the human GLP-1 receptor; 30 min treatment; HitHunter cAMP kit; read-out: EC50
pEC50: −log10 of the molar value.
Exercise: for every item that follows, state its recorded pEC50.

The cases that follow already have their pEC50 on record.
>>> result("Cc1ccc(N(C)c2cccc(C(=O)N3CCN(Cc4nc5ccc(C(=O)O)cc5n4C[C@@H]4CCO4)CC3)c2)cc1")
"6.30 to 7.30"
>>> result("O=C(O)c1ccc2nc(CN3CCN(C(=O)c4ccc(COc5ccccc5)o4)CC3)n(C[C@@H]3CCO3)c2c1")
"< 6.30"
>>> result("O=C(O)c1ccc2nc(CN3CCN(C(=O)c4cccc(Oc5cc(Cl)ccc5F)c4)CC3)n(C[C@@H]3CCO3)c2c1")
"< 6.30"

Could you now look at the following compound, please?
Consider O=C(O)c1ccc2nc(CN3CCC(Oc4ccnc(COc5ccc(F)cc5Cl)n4)CC3)n(C[C@@H]3CCO3)c2c1 . Its measured pEC50 is > 7.30

###

- assayed-target: human GLP-1 receptor (Homo sapiens, UniProt P43220)
- Construct: expressed in transfected cells
- experiment-notes: GLP-1R cAMP Assay
- Type: cell-based
- settings: cAMP accumulation in CHO cells stably overexpressing the human GLP-1 receptor; 30 min treatment; HitHunter cAMP kit; read-out: EC50
assay-endpoint: EC50

>>> result("CCn1cncc1Cn1c(CN2CCC(Cc3cccc(COc4ccc(Cl)cc4C#N)c3)CC2)nc2ccc(C(=O)O)cc21 [Compound 165]")
"< 50 nM"
>>> result("Cc1ccc(Oc2cccc(C(=O)N3CCN(Cc4nc5ccc(C(=O)O)cc5n4C[C@@H]4CCO4)CC3)c2)cc1 [Compound 5]")
"> 500 nM"
>>> result("Cc1ccc(Cc2cccc(C(=O)N3CCN(Cc4nc5ccc(C(=O)O)cc5n4C[C@@H]4CCO4)CC3)c2)c(Cl)c1 [Example 32]")
"50 to 500 nM"
>>> result("CCn1cncc1Cn1c(CN2CCN(C(=O)c3cc(N(C)c4ccc(C)cc4Cl)ccc3C)CC2)nc2ccc(C(=O)O)cc21 [Compound 76]")
"< 50 nM"
>>> result("N#Cc1cc(F)ccc1OCc1nccc(OC2CCN(Cc3nc4ccc(C(=O)O)cc4n3C[C@@H]3CCO3)CC2)n1 [Compound 306]")
"< 50 nM"
>>> result("O=C(O)c1ccc2nc(CN3CCC(Oc4ccnc(COc5ccc(Cl)cc5F)c4)CC3)n(Cc3ncco3)c2c1 [Compound 258]")
"< 50 nM"
>>> result("CCn1cncc1Cn1c(CN2CCC([C@H](OC)c3cccc(COc4ccc(Cl)cc4Cl)c3)CC2)nc2ccc(C(=O)O)cc21 (single isomer, unassigned) [Example 205]")
"50 to 500 nM"
>>> result("O=C(O)c1ccc2nc(CN3CCC(Oc4cccc(COc5ncc(Cl)cc5F)c4)CC3)n(C[C@@H]3CCO3)c2c1 [Compound 288]")
"> 500 nM"

Could you now look at the following compound, please?
Consider CCn1cncc1Cn1c(CN2CCC(Cc3ccnc(COc4ccc(Cl)cc4Cl)c3)CC2)nc2ccc(C(=O)O)cc21 [Example 128] . Its measured EC50 is < 50 nM

###

Exercise: for every item that follows, state its recorded EC50.
- assayed-target: human GLP-1 receptor (Homo sapiens, UniProt P43220)
- Construct: expressed in transfected cells
- experiment-notes: GLP-1R cAMP Assay
- Type: cell-based
- settings: cAMP accumulation in CHO cells stably overexpressing the human GLP-1 receptor; 30 min treatment; HitHunter cAMP kit; read-out: EC50

>>> result("N#Cc1cc(Cl)ccc1OCc1cc(OC2CCN(Cc3nc4ccc(C(=O)O)cc4n3Cc3ccno3)CC2)ccn1")
"< 50 nM"
>>> result("O=C(O)c1ccc2nc(CN3CCN(C(=O)c4ccc(COc5ccc(Cl)cc5Cl)o4)CC3)n(C[C@@H]3CCO3)c2c1")
"50 to 500 nM"
>>> result("Cc1ccc(Nc2cccc(C(=O)N3CCN(Cc4nc5ccc(C(=O)O)cc5n4C[C@@H]4CCO4)CC3)c2)c(Cl)c1")
"> 500 nM"
>>> result("Cc1ccc(N(C)c2cccc(C(=O)N3CCN(Cc4nc5ccc(C(=O)O)cc5n4C[C@@H]4CCO4)CC3)c2)c(Cl)c1")
"< 50 nM"
>>> result("O=C(O)c1ccc2nc(CN3CCC(Oc4cccc(COc5ccc(Cl)cc5F)n4)CC3)n(C[C@@H]3CCO3)c2c1")
"< 50 nM"

Give EC50 for each listed item.
1. O=C(O)c1ccc2nc(CN3CCC(Oc4ccnc(COc5ccc(Cl)cc5Cl)c4)CC3)n(Cc3ncco3)c2c1
2. O=C(O)c1ccc2nc(CN3CCC(Oc4cccc(COc5ccc(Cl)cc5F)n4)CC3)n(Cc3cnco3)c2c1
3. N#Cc1cc(C2CC2)ccc1OCc1nccc(OC2CCN(Cc3nc4ccc(C(=O)O)cc4n3C[C@@H]3CCO3)CC2)n1
4. C[C@H]1C[C@@H](Oc2ccnc(COc3ccc(C#N)cc3F)c2)CCN1Cc1nc2c(F)cc(C(=O)O)cc2n1C[C@@H]1CCO1
5. N#Cc1ccc(OCc2cc(OC3CCN(Cc4nc5ccc(C(=O)O)cc5n4C[C@@H]4CCO4)CC3)cnn2)c(F)c1

< 50 nM
< 50 nM
< 50 nM
< 50 nM
< 50 nM

###

- assayed-target: human GLP-1 receptor (Homo sapiens)
- Construct: expressed in transfected cells
- experiment-notes: GLP-1R cAMP Assay
- Assay type: cell-based
- settings: cAMP accumulation in CHO cells stably overexpressing the human GLP-1 receptor; 30 min treatment; HitHunter cAMP kit; read-out: EC50
Exercise: for every item that follows, state its recorded EC50.

>>> result("N#Cc1ccccc1Oc1ccccc1C(=O)N1CCN(Cc2nc3ccc(C(=O)O)cc3n2C[C@@H]2CCO2)CC1")
"> 500 nM"

Give EC50 for each listed item.
1. N#Cc1ccc(OCc2cccc(OC3CCN(Cc4nc5ccc(C(=O)O)nc5n4C[C@@H]4CCO4)CC3)n2)c(F)c1
2. O=C(O)c1ccc2nc(CN3CCN(Cc4ccc(COc5ccc(Cl)cc5Cl)o4)CC3)n(C[C@@H]3CCO3)c2c1
3. CCn1cncc1Cn1c(CN2CCC(Cc3cnc(COc4ccc(Cl)cc4C#N)o3)CC2)nc2ccc(C(=O)O)cc21
4. CCn1cncc1Cn1c(CN2CC[C@@H](Cc3cnc(COc4ccc(Cl)cc4Cl)o3)C[C@@H]2C)nc2ccc(C(=O)O)cc21

1: < 50 nM; 2: 50 to 500 nM; 3: < 50 nM; 4: < 50 nM

Give EC50 for each listed item.
1. CCn1cncc1Cn1c(CN2CCC(Oc3ccnc(COc4ccc(C#N)cc4F)c3)CC2)nc2ccc(C(=O)O)cc21
2. N#Cc1ccc(OCc2ncc(F)c(OC3CCN(Cc4nc5ccc(C(=O)O)cc5n4C[C@@H]4CCO4)CC3)n2)c(F)c1
3. N#Cc1cc(Cl)ccc1OCc1cc(OC2CCN(Cc3nc4ccc(C(=O)O)cc4n3C[C@@H]3CCO3)CC2)ccn1

["< 50 nM", "< 50 nM", "< 50 nM"]

Bench note, human GLP-1 receptor (Homo sapiens): CN(C)C(=O)c1ccc(OCc2ccc(C(=O)N3CCN(Cc4nc5ccc(C(=O)O)cc5n4C[C@@H]4CCO4)CC3)o2)c(F)c1 , EC50 reads > 500 nM
